Source listed as patent EP4725957A1.

Items are presented alongside their recorded MIC.
- Tested on: Pseudomonas aeruginosa ATCC 27853
- Assay type: cell-based
- Cond: ATCC 27853
Bridge positions count the residues as written; N and C are the ends. Square brackets hold non-standard residues; d marks the D form. Peptide text beside a SMILES is read from it. * marks the point of attachment. Dab(CH2SO3H) = N[C@@H](CCNCS(=O)(=O)O)C(=O)O; Heptanoyl(6-Me) = CC(C)CCCCC(=O)*; Nonanoyl = CCCCCCCCC(=O)*; Orn = NCCC[C@H](N)C(=O)O; Dab = NCC[C@H](N)C(=O)O; Dap = NC[C@H](N)C(=O)O
// note: answer is a bare numeric in µg/mL

[[record]]
compound = "CCCCCCCCC(=O)N[C@@H](CCCN)C(=O)N[C@H](C(=O)N[C@H](CO)C(=O)N[C@H]1CCNC(=O)[C@H]([C@@H](C)O)NC(=O)[C@H](CCN)NC(=O)[C@H](CCN)NC(=O)[C@H]([C@@H](C)O)NC(=O)[C@@H](Cc2ccccc2)NC(=O)[C@H](CCN)NC1=O)[C@@H](C)O [Compound 60] (Nonanoyl-[Orn]T[dS][Dab][Dab][dF]T[Dab][Dab]T; lactam 4-C)"
quantity = "MIC"
unit_string = "µg/mL"
obs_value = 64


Next compound, please.
Need MIC, item CC(C)CCCCC(=O)N[C@@H](CCNCS(=O)(=O)O)C(=O)N[C@H](C(=O)N[C@@H](CN)C(=O)N[C@H]1CCNC(=O)[C@H]([C@@H](C)O)NC(=O)[C@H](CCN)NC(=O)[C@H](CCN)NC(=O)[C@H]([C@@H](C)O)NC(=O)[C@@H](Cc2ccccc2)NC(=O)[C@H](CCN)NC1=O)[C@@H](C)O [Compound 117] ({Heptanoyl(6-Me)}-[Dab(CH2SO3H)]T[Dap][Dab][Dab][dF]T[Dab][Dab]T; lactam 4-C)
0.25

* * *

- System: Acinetobacter baumannii NCTC 13304 (OXA-27)
- Type: cell-based
- Cond: NCTC 13304
Numbered stars: 1 amine (or outer) side, 2 acyl side, 3 side chain; on linkers, the order of the positions; unused ones are H or OH. Bridge positions count the residues as written; N and C are the ends. Square brackets hold non-standard residues; d marks the D form. Peptide text beside a SMILES is read from it. * marks the point of attachment. X3 = O=C([C@@H](Cc1ccc(CS(=O)(=O)O)cc1)N[*:1])[*:2]; Heptanoyl(6-Me) = CC(C)CCCCC(=O)*; Nonanoyl = CCCCCCCCC(=O)*; dDab = NCC[C@@H](N)C(=O)O; Heptanoyl = CCCCCCC(=O)*; Orn = NCCC[C@H](N)C(=O)O; Dab = NCC[C@H](N)C(=O)O; Dap = NC[C@H](N)C(=O)O
Items are presented alongside their recorded MIC.
// note: answer is a bare numeric in µg/mL

The cases that follow already have their MIC on record.
[[record]]
compound = "CCCCCCC(=O)N[C@@H](CCN)C(=O)N[C@H](C(=O)N[C@@H](CCCN)C(=O)N[C@H]1CCNC(=O)[C@H]([C@@H](C)O)NC(=O)[C@H](CCN)NC(=O)[C@H](CCN)NC(=O)[C@H](CC(C)C)NC(=O)[C@@H](Cc2ccccc2)NC(=O)[C@H](CCN)NC1=O)[C@@H](C)O [Compound 49] (Heptanoyl-[Dab]T[Orn][Dab][Dab][dF]L[Dab][Dab]T; lactam 4-C)"
quantity = "MIC"
obs_value = 0.06

[[record]]
compound = "CCCCCCCCC(=O)N[C@@H](CN)C(=O)N[C@H](C(=O)N[C@H](CCN)C(=O)N[C@H]1CCNC(=O)[C@H]([C@@H](C)O)NC(=O)[C@H](CCN)NC(=O)[C@H](CCN)NC(=O)[C@H](CC(C)C)NC(=O)[C@@H](Cc2ccccc2)NC(=O)[C@H](CCN)NC1=O)[C@@H](C)O [Compound 95] (Nonanoyl-[Dap]T[dDab][Dab][Dab][dF]L[Dab][Dab]T; lactam 4-C)"
quantity = "MIC"
obs_value = 0.06

[[record]]
compound = "CC(C)CCCCC(=O)N[C@@H](CCN)C(=O)N[C@H](C(=O)N[C@H](CO)C(=O)N[C@H]1CCNC(=O)[C@H]([C@@H](C)O)NC(=O)[C@H](CCN)NC(=O)[C@H](CCN)NC(=O)[C@H]([C@@H](C)O)NC(=O)[C@@H](Cc2ccc(CS(=O)(=O)O)cc2)NC(=O)[C@H](CCN)NC1=O)[C@@H](C)O [Compound 107] ({Heptanoyl(6-Me)}-[Dab]T[dS][Dab][Dab][X3]T[Dab][Dab]T; lactam 4-C)"
quantity = "MIC"
obs_value = 0.06


Next compound, please.
Request: MIC, test system Acinetobacter baumannii NCTC 13304 (OXA-27), entry CC(C)CCCCC(=O)N[C@@H](CCN)C(=O)N[C@H](C(=O)N[C@H](CO)C(=O)N[C@H]1CCNC(=O)[C@H]([C@@H](C)O)NC(=O)[C@H](CCN)NC(=O)[C@H](CCN)NC(=O)[C@H]([C@@H](C)O)NC(=O)[C@@H](Cc2ccccc2)NC(=O)[C@H](CN)NC1=O)[C@@H](C)O [Compound 62] ({Heptanoyl(6-Me)}-[Dab]T[dS][Dab][Dap][dF]T[Dab][Dab]T; lactam 4-C)
0.25

* * *

Items are presented alongside their recorded MIC.
- Test system: Pseudomonas aeruginosa ATCC 27853
- Assay type: cell-based
- Cond: ATCC 27853
Bridge positions count the residues as written; N and C are the ends. Square brackets hold non-standard residues; d marks the D form. Peptide text beside a SMILES is read from it. * marks the point of attachment. Nonanoyl = CCCCCCCCC(=O)*; X1 = CC[C@H](C)CCCCC(=O)*; dDab = NCC[C@@H](N)C(=O)O; Heptanoyl = CCCCCCC(=O)*; Octanoyl = CCCCCCCC(=O)*; Dab = NCC[C@H](N)C(=O)O; Dap = NC[C@H](N)C(=O)O
// note: answer is a bare numeric in µg/mL

The cases that follow already have their MIC on record.
[[record]]
molecule = "CCCCCCCCC(=O)N[C@@H](CCN)C(=O)N[C@H](C(=O)N[C@@H](CCN)C(=O)N[C@H]1CCNC(=O)[C@H]([C@@H](C)O)NC(=O)[C@H](CCN)NC(=O)[C@H](CCN)NC(=O)[C@H]([C@@H](C)O)NC(=O)[C@@H](Cc2ccccc2)NC(=O)[C@H](CCN)NC1=O)[C@@H](C)O [Compound 20] (Nonanoyl-[Dab]T[Dab][Dab][Dab][dF]T[Dab][Dab]T; lactam 4-C)"
quantity = "MIC"
obs_value = 2

[[record]]
molecule = "CCCCCCCC(=O)N[C@@H](CCN)C(=O)N[C@H](C(=O)N[C@@H](CCN)C(=O)N[C@H]1CCNC(=O)[C@H]([C@@H](C)O)NC(=O)[C@H](CCN)NC(=O)[C@H](CCN)NC(=O)[C@H]([C@@H](C)O)NC(=O)[C@@H](Cc2ccccc2)NC(=O)[C@H](CCN)NC1=O)[C@@H](C)O [Compound 18] (Octanoyl-[Dab]T[Dab][Dab][Dab][dF]T[Dab][Dab]T; lactam 4-C)"
quantity = "MIC"
obs_value = 0.5

[[record]]
molecule = "CCCCCCC(=O)N[C@@H](CCN)C(=O)N[C@H](C(=O)N[C@H](CCN)C(=O)N[C@H]1CCNC(=O)[C@H]([C@@H](C)O)NC(=O)[C@H](CCN)NC(=O)[C@H](CCN)NC(=O)[C@H]([C@@H](C)O)NC(=O)[C@@H](Cc2ccccc2)NC(=O)[C@H](CCN)NC1=O)[C@@H](C)O [Compound 14] (Heptanoyl-[Dab]T[dDab][Dab][Dab][dF]T[Dab][Dab]T; lactam 4-C)"
quantity = "MIC"
obs_value = 2


Need MIC, item CCCCCCC(=O)N[C@@H](CCN)C(=O)N[C@H](C(=O)N[C@@H](CN)C(=O)N[C@H]1CCNC(=O)[C@H]([C@@H](C)O)NC(=O)[C@H](CCN)NC(=O)[C@H](CCN)NC(=O)[C@H]([C@@H](C)O)NC(=O)[C@@H](Cc2ccccc2)NC(=O)[C@H](CCN)NC1=O)[C@@H](C)O [Compound 9] (Heptanoyl-[Dab]T[Dap][Dab][Dab][dF]T[Dab][Dab]T; lactam 4-C)
0.125

Need MIC, item CC[C@H](C)CCCCC(=O)N[C@@H](CN)C(=O)N[C@H](C(=O)N[C@H](CO)C(=O)N[C@H]1CCNC(=O)[C@H]([C@@H](C)O)NC(=O)[C@H](CCN)NC(=O)[C@H](CCN)NC(=O)[C@H]([C@@H](C)O)NC(=O)[C@@H](Cc2ccccc2)NC(=O)[C@H](CCN)NC1=O)[C@@H](C)O [Compound 51] (X1-[Dap]T[dS][Dab][Dab][dF]T[Dab][Dab]T; lactam 4-C)
64
